- Tested on: S. aureus ATCC 25923
- protocolSummary: MIC/MLC assay against S. aureus
- Assay type: cell-based, Staphylococcus aureus
- runConditions: Table 11
No end group written: not given here.

substance: T14G: core peptide mutant of mutacin 1140, Threonine 14 replaced by Glycine (FKSWSLCTPGCARGGSFNSYCC; not fully specified; ends and bridges not checked; UniProt O68586 42-63, looked up, variant T14G) [Mutant T14G]
experimentalSystem: S. aureus ATCC 25923
qual: >
S. aureus ATCC 25923 MLC (micrograms per milliliter): 32
--
substance: S5T: core peptide mutant of mutacin 1140, Serine 5 replaced by Threonine (FKSWTLCTPGCARTGSFNSYCC; UniProt O68586 42-63, looked up, variant S5T) [Mutant S5T]
experimentalSystem: S. aureus ATCC 25923
qual: >
S. aureus ATCC 25923 MLC (micrograms per milliliter): 32
--
substance: S5G:R13A:T14A: core peptide mutant of mutacin 1140, positions 5, 13 and 14 replaced by Glycine, Alanine and Alanine (FKSWGLCTPGCAAAGSFNSYCC; ends and bridges not checked; cysteine pairing not given here; UniProt O68586 42-63, looked up, variant S5G R13A T14A)
experimentalSystem: S. aureus ATCC 25923
qual: >
S. aureus ATCC 25923 MLC (micrograms per milliliter): 32
--
substance: T14A: core peptide mutant of mutacin 1140, Threonine 14 replaced by Alanine (FKSWSLCTPGCARAGSFNSYCC; UniProt O68586 42-63, looked up, variant T14A) [Mutant T14A]
experimentalSystem: S. aureus ATCC 25923
qual: =
S. aureus ATCC 25923 MLC (micrograms per milliliter): 16
--
substance: A12T:T14G: core peptide mutant of mutacin 1140, positions 12, 14 replaced by Threonine and Glycine (FKSWSLCTPGCTRGGSFNSYCC; ends and bridges not checked; cysteine pairing not given here; UniProt O68586 42-63, looked up, variant A12T T14G)
experimentalSystem: S. aureus ATCC 25923
qual: >
S. aureus ATCC 25923 MLC (micrograms per milliliter): 32
--
substance: S5A:A12S dehydrated: core peptide mutant of mutacin 1140, positions 5, 12 replaced by Alanine and Serine; dehydrated form (FKSWALCTPGCSRTGSFNSYCC; ends and bridges not checked; also: dehydrated form; UniProt O68586 42-63, looked up, variant S5A A12S)
experimentalSystem: S. aureus ATCC 25923
qual: =
S. aureus ATCC 25923 MLC (micrograms per milliliter): 32
--
substance: S5A:A12S un-dehydrated: core peptide mutant of mutacin 1140, positions 5, 12 replaced by Alanine and Serine; un-dehydrated form (FKSWALCTPGCSRTGSFNSYCC; ends and bridges not checked; cysteine pairing not given here; UniProt O68586 42-63, looked up, variant S5A A12S)
experimentalSystem: S. aureus ATCC 25923
qual: =
S. aureus ATCC 25923 MLC (micrograms per milliliter): 16

---

- System: S. pneumoniae ATCC 27336
- Type: cell-based, Streptococcus pneumoniae
- runConditions: Table 11
No end group written: not given here.

substance: S5G:R13A:T14A: core peptide mutant of mutacin 1140, positions 5, 13 and 14 replaced by Glycine, Alanine and Alanine (FKSWGLCTPGCAAAGSFNSYCC; ends and bridges not checked; cysteine pairing not given here; UniProt O68586 42-63, looked up, variant S5G R13A T14A)
readoutUnit: micrograms per milliliter
qual: >
S. pneumonia ATCC 27336 MLC: 16
//
substance: T14G: core peptide mutant of mutacin 1140, Threonine 14 replaced by Glycine (FKSWSLCTPGCARGGSFNSYCC; not fully specified; ends and bridges not checked; UniProt O68586 42-63, looked up, variant T14G) [Mutant T14G]
readoutUnit: micrograms per milliliter
qual: =
S. pneumonia ATCC 27336 MLC: 0.5
//
substance: S5A:A12S dehydrated: core peptide mutant of mutacin 1140, positions 5, 12 replaced by Alanine and Serine; dehydrated form (FKSWALCTPGCSRTGSFNSYCC; ends and bridges not checked; also: dehydrated form; UniProt O68586 42-63, looked up, variant S5A A12S)
readoutUnit: micrograms per milliliter
qual: =
S. pneumonia ATCC 27336 MLC: 0.125
